meta.source: the OPERA property sets (Mansouri et al. 2018)

conditions: fish
Entries and their log10 BCF values follow.
# respond with the number and nothing more

Nc1ccc(S(=O)(=O)[O][Na])c2ccccc12    0.78
C=C(Cl)Cl    1.11
ClC(c1ccccc1)(c1ccccc1)c1ccccc1    2.63

Prompt line: Provide measured log10 BCF value, entry: `CCNc1nc(Cl)nc(NC(C)C)n1`
Response line: 0.9

Prompt line: Provide measured log10 BCF value, entry: ClC1C(Br)C(Br)C(Br)C(Br)C1Br (centres undefined)
Response line: 2.41

* * *

Entries and their melting point values follow.
Write the value in °C as a bare number.

Examples with answers:
CN1C(=O)CCS(=O)(=O)C1c1ccc(Cl)cc1 (stereo unspecified)    116
O=[N+]([O-])c1ccccc1Sc1ccccc1    82
CCc1ccc(C(=O)O)cc1    112
NC[C@H](O)c1ccccc1    56.5
CCCCC(C(=O)O)C(=O)N(Nc1ccccc1)c1ccccc1 (stereo unspecified)    116

Next up:
Prompt line: Provide measured melting point value, entry: CCNC1=NC(=O)C(c2ccccc2)O1 (stereo unspecified)
Response line: 148

* * *

endpoint-name: melting point (°C)
Write the value in °C as a bare number.

Prompt line: Provide measured melting point value, entry: `Cc1cc(CC(=O)O)n(C)c1C(=O)c1ccc(Cl)cc1`
Response line: 178

Prompt line: Provide measured melting point value, entry: `ClCC(Cl)CCl`
Response line: -14.7

Prompt line: Provide measured melting point value, entry: `Oc1ccccc1-c1nnco1`
Response line: 112

Prompt line: Provide measured melting point value, entry: `C=CCn1c(=O)n(CC=C)c(=O)n(CC=C)c1=O`
Response line: 20.5

Prompt line: Provide measured melting point value, entry: FC(Cl)CCl (stereo unspecified)
Response line: -60

Prompt line: Provide measured melting point value, entry: `C[N+](C)(C)CCOC(=O)NCCCCCCNC(=O)OCC[N+](C)(C)C.[Br-].[Br-]`
Response line: 175

Prompt line: Provide measured melting point value, entry: `CC(C)C(=O)C(=O)O`
Response line: 31.5

Prompt line: Provide measured melting point value, entry: `Cc1ccc2cccc([N+](=O)[O-])c2n1`
Response line: 140

Prompt line: Provide measured melting point value, entry: `Nc1ccc(N=Nc2ccc([N+](=O)[O-])cc2)cc1`
Response line: 215

Prompt line: Provide measured melting point value, entry: `CCCCCCS`
Response line: -81

Prompt line: Provide measured melting point value, entry: `N#CCCCCC#N`
Response line: 1

Prompt line: Provide measured melting point value, entry: `CCn1c2ccccc2c2ccccc21`
Response line: 68

Prompt line: Provide measured melting point value, entry: CC1CC(OC(=O)C(O)c2ccccc2)CC(C)(C)N1C (stereo unspecified)
Response line: 113

Prompt line: Provide measured melting point value, entry: `Cc1ccccc1C(=O)Nc1cccc(OC(C)C)c1`
Response line: 92.5

Prompt line: Provide measured melting point value, entry: `CCC1=CCCCC1`
Response line: -110

Prompt line: Provide measured melting point value, entry: `O=C1CCC(=O)N1Cl`
Response line: 150

* * *

endpoint-name: log10 vapour pressure (mmHg)

Examples with answers:
COc1nc(NC(C)C)nc(NC(C)C)n1    -5.64
CC(C)(C)OC(C)(C)C    1.51
c1ccc2[nH]c(-c3cscn3)nc2c1    -8.4
CC(O)COCc1c(Cl)ccc(Cl)c1Cl (stereo not given)    -4
c1ccc(C2CCCCC2)cc1    -1.4
COC(C)=O    2.33

Prompt line: Provide measured log10 vapour pressure (mmHg) value, entry: `COc1cc(Cl)c(Cl)cc1O`
Response line: -2.35

Prompt line: Provide measured log10 vapour pressure (mmHg) value, entry: `c1cc[n+]2c(c1)-c1cccc[n+]1CC2`
Response line: -8
